test_target: Cellular tumor antigen p53 (Homo sapiens)
assay_info: TOX21_p53_BLA_p5_ratio: Tox21 HCT-116 p53 Agonism Beta-lactamase Assay, Ratio, Phase 5 (AID 2283599)
Records with an inconclusive call do not appear. Active and inactive are the calls of the source. Rule for the calls: active = hit-call score of the fitted dose curve at least 0.9, where 1 is the maximum; inconclusive = response in the unintended direction; inactive = score below 0.9.
quantity: outcome

NCCOCCO | inactive
CC1(CO)CN(c2ccccc2)NC1=O (stereo not given) | inactive
CCCCC/C=C/C=C/C=O | inactive
O=C(O)Cc1cccc2ccccc12 | inactive

// sample "CCCCc1ccc(N)cc1" , its outcome was inactive

----------
Read-out: Interleukin 17F (IL17F), IL17F (gene 112744)
assay_info: BSK_BT_xIL17F: BioMAP Diversity Plus: BT Assay for Interleukin 17F (IL17F) Biomarker Activity (AID 2284243)
conditions_used: primary human B cells with PBMC
The source made the active and inactive calls. The calls were made as follows: active = hit-call score of the fitted dose curve at least 0.9, where 1 is the maximum; inactive = score below 0.9.
# output must be one of class 1 (active), class 0 (inactive)

Prompt: Please indicate how the test categorized "O=C(O)c1cn(C2CC2)c2cc(N3CCNCC3)c(F)cc2c1=O" .
Response: class 0

Prompt: What did this assay record as the result for "CCCCC/C=C/C=C/C=O" ?
Response: class 1

Prompt: Lab log entry: "CC(=O)O[C@]1(C(C)=O)CC[C@H]2[C@@H]3C[C@H](C)C4=CC(=O)CC[C@]4(C)[C@H]3CC[C@@]21C" — outcome as called in the assay?
Response: class 1

Prompt: GET /call?item= O=C=NC1CCC(CC2CCC(N=C=O)CC2)CC1 (stereo not drawn) returns the recorded outcome of this test.
Response: class 0

Prompt: Per the records of this test, what outcome belongs to "C#C[C@]1(O)CC[C@H]2[C@@H]3CCC4=Cc5oncc5C[C@]4(C)[C@H]3CC[C@@]21C" ?
Response: class 1

Prompt: // return assay outcome for "Nc1cc([N+](=O)[O-])ccc1Cl"
Response: class 0

Prompt: Any idea what this test logged for "CCCCCCCCC=O" ?
Response: class 0

Prompt: // param item: "COC(=O)c1ccc(C)cc1" ; yields the recorded call
Response: class 0

Prompt: How was "O=[N+]([O-])c1cc(C(F)(F)F)ccc1Cl" classified in this test?
Response: class 0

Prompt: What call does the record list for "Cc1ccc(Nc2ccc(O)c3c2C(=O)c2ccccc2C3=O)cc1" ?
Response: class 0

Prompt: Which outcome did this test record for the molecule "CNC[C@H](O)c1cccc(O)c1" ?
Response: class 0

Prompt: For CC1COc2ccccc2N1C(=O)C(Cl)Cl (stereo not drawn) , which call appears in the assay record?
Response: class 0

Prompt: I would be grateful if you could indicate the recorded call for "O=C1OC2(c3cc(Br)c(O)c(Br)c3Oc3c2cc(Br)c(O)c3Br)c2c(Cl)c(Cl)c(Cl)c(Cl)c21" .
Response: class 0

Prompt: Please share the test call associated with "CC(C)c1ccc(C(C)C)cc1" .
Response: class 0

Prompt: Call for entry CN(CCOc1ccc(CC2SC(=O)NC2=O)cc1)c1ccccn1 (stereo not drawn) :
Response: class 0

Prompt: I'd appreciate the recorded outcome for "O=P(c1ccccc1)(c1ccccc1)c1ccccc1" from this test.
Response: class 0

Prompt: I would be grateful if you could indicate the recorded call for "CC(C)(COC(=O)c1ccccc1)COC(=O)c1ccccc1" .
Response: class 0

Prompt: Which outcome was entered for the molecule CCCCC(CC)COC(=O)/C=C\C(=O)OCC(CC)CCCC (stereo not drawn) in this test?
Response: class 0

Prompt: Could you kindly confirm the outcome this assay logged for "Cc1ccc2n[nH]nc2c1" ?
Response: class 0

Prompt: # fetch the recorded call for "c1ccc2c(c1)c1cccc3ccc4cccc2c4c31" here
Response: class 1

Prompt: Hi, do you know how "c1ccc2sc(SN(C3CCCCC3)C3CCCCC3)nc2c1" came out in this test?
Response: class 0

Prompt: What outcome does the record of this test show for "N#Cc1ccc(CC(=NNC(=O)Nc2ccc(OC(F)(F)F)cc2)c2cccc(C(F)(F)F)c2)cc1" ?
Response: class 0

Prompt: Identify the outcome logged in this assay for the molecule shown: "CCc1c(C)cc(N)c(CC)c1N"
Response: class 0

----------
Read-out: Interleukin-1 alpha (IL1a), IL1A (gene 3552)
assay_info: BSK_LPS_IL1a: BioMAP Diversity Plus: LPS Assay for Interleukin-1 alpha (IL1a) Biomarker Activity (AID 2283080)
conditions_used: primary human HUVEC with PBMC; actives raise or lower the signal
Calls of active or inactive are those of the source. How the source made its calls: active means hit-call score of the fitted dose curve at least 0.9, where 1 is the maximum; inactive means score below 0.9.
Parameter call: string, one of active, inactive

Prompt: # fetch the recorded call for "Cc1ccc(Nc2ccc(O)c3c2C(=O)c2ccccc2C3=O)cc1" here
Response: inactive

Prompt: Test call for this molecule, please: "C=C[Si](OCC)(OCC)OCC"
Response: inactive

Prompt: Dear colleague, could you share the recorded outcome for "O=[N+]([O-])c1cc(C(F)(F)F)ccc1Cl" when you have a moment?
Response: inactive

Prompt: Tell me the assay call for "Nc1cc([N+](=O)[O-])ccc1Cl" please.
Response: inactive

Prompt: Could you check what this test reported for BrC1CCC(Br)C(Br)CCC(Br)C(Br)CCC1Br (stereo unspecified) ?
Response: active

Prompt: Which outcome did this test record for the molecule "CC(=O)[C@H]1CC[C@H]2[C@@H]3CC=C4C[C@@H](O)CC[C@]4(C)[C@H]3CC[C@]12C" ?
Response: inactive

Prompt: What did this assay record as the result for "C[C@H]1C[C@@H]2[C@H]([C@@H](O)C[C@@]3(C)[C@H]2CC[C@]3(O)C(=O)CO)[C@@]2(C)C=CC(=O)C=C12" ?
Response: inactive

Prompt: In this assay, the call recorded for CC1CCC(C(C)CS)CC1S (stereo unspecified) was what?
Response: active

Prompt: How was "CCc1c(C)cc(N)c(CC)c1N" classified in this test?
Response: inactive

Prompt: Hi, sorry to bother you, what did the test record for "CNC[C@H](O)c1cccc(O)c1" ?
Response: inactive

Prompt: Outcome logged for "NCCNCCN" in this assay:
Response: inactive

Prompt: # outcome recorded in this test, key = "CC[Si](OC(C)=O)(OC(C)=O)OC(C)=O"
Response: inactive

Prompt: For "O=C(O)c1ccc([N+](=O)[O-])cc1" , which call appears in the assay record?
Response: inactive

Prompt: Recorded test outcome, item "C#C[C@]1(O)CC[C@H]2[C@@H]3CCC4=Cc5oncc5C[C@]4(C)[C@H]3CC[C@@]21C"
Response: inactive

Prompt: Returns: the outcome recorded for CN(CCOc1ccc(CC2SC(=O)NC2=O)cc1)c1ccccn1 (stereo unspecified) in this assay.
Response: inactive

Prompt: Which outcome did this test record for the molecule OC1OC[C@@H](O)[C@H](O)[C@H]1O (stereo partly specified) ?
Response: inactive

Prompt: Record request — test call for "CCn1c2ccccc2c2cc(N)ccc21"
Response: active

Prompt: Field: outcome | Entry: "O=C1CCCCCCCCCCCCCCO1"
Response: inactive

Prompt: // outcome(item) with item = "N#Cc1ccc(CC(=NNC(=O)Nc2ccc(OC(F)(F)F)cc2)c2cccc(C(F)(F)F)c2)cc1"
Response: inactive

Prompt: Kindly provide the recorded test outcome for the following molecule: "CCCCCCCCCC=O"
Response: inactive

Prompt: Just curious, what result did "C=C(C)C(=O)O[C@H]1C[C@@H]2CC[C@@]1(C)C2(C)C" get here?
Response: active

Prompt: # fetch the recorded call for "COC(=O)c1ccc(C)cc1" here
Response: inactive

Prompt: What outcome does the record of this test show for "CC(=O)Nc1ccccc1O" ?
Response: inactive

Prompt: What did the test return for "CC(=O)O[C@]1(C(C)=O)CC[C@H]2[C@@H]3C[C@H](C)C4=CC(=O)CC[C@]4(C)[C@H]3CC[C@@]21C" ?
Response: inactive

Prompt: So what was the verdict on "O=C(O)c1cn(C2CC2)c2cc(N3CCNCC3)c(F)cc2c1=O" in this test?
Response: inactive

Prompt: Each molecule tested received a call. Report the one for "CCC(=O)OCc1ccccc1" .
Response: inactive

----------
assay_info: CEETOX_H295R_ESTRONE: CeeTox H295R High-throughput Steroidogenesis Assay for Estrone (AID 2283441);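 note: estrone secreted into medium measured by LC-MS/MS after dansyl derivatization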
conditions_used: actives raise or lower the signal
Calls of active or inactive are those of the source. Rule for the calls: active = hit-call score of the fitted dose curve at least 0.9, where 1 is the maximum; inactive = score below 0.9.
Classes to choose from: active, inactive

Prompt: Which outcome was assigned to "COc1cc2ncnc(Nc3cccc(Cl)c3)c2cc1OC" in this test?
Response: inactive

Prompt: Write down the call the test reported for this molecule. Item: "NC(=O)Nc1ccc(Cl)cc1"
Response: inactive

Prompt: Which outcome was assigned to "CC(C)c1cccc(O)c1" in this test?
Response: inactive

Prompt: Given "c1ccc(CCCc2ccccn2)cc1" , state the outcome it received in this test.
Response: inactive

Prompt: Hello, I am checking results. What call was entered for "C#C[C@]1(O)CC[C@H]2[C@@H]3CCC4=Cc5oncc5C[C@]4(C)[C@H]3CC[C@@]21C" ?
Response: active

----------
test_target: Estrogen receptor (Homo sapiens) + Estrogen receptor beta (Homo sapiens) (UniProt P03372+Q92731)
Sequence (P03372 whole entry, looked up, the tested form may be a part): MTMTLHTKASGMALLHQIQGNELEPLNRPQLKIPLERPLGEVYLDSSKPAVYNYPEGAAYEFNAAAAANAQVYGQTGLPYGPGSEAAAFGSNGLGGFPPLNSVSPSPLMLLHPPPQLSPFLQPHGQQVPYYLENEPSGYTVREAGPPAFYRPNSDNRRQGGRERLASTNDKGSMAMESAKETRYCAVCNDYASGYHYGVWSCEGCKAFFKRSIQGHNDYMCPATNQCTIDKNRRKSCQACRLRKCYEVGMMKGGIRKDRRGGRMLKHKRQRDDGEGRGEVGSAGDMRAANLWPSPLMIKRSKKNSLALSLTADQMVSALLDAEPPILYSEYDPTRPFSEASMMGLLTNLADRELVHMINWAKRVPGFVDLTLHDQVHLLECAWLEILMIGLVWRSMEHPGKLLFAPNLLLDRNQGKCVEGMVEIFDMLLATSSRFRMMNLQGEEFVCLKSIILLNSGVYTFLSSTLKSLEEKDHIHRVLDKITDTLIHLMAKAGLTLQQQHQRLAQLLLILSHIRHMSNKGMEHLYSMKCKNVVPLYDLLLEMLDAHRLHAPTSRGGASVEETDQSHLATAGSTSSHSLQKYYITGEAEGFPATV
Sequence (Q92731 whole entry, looked up, the tested form may be a part): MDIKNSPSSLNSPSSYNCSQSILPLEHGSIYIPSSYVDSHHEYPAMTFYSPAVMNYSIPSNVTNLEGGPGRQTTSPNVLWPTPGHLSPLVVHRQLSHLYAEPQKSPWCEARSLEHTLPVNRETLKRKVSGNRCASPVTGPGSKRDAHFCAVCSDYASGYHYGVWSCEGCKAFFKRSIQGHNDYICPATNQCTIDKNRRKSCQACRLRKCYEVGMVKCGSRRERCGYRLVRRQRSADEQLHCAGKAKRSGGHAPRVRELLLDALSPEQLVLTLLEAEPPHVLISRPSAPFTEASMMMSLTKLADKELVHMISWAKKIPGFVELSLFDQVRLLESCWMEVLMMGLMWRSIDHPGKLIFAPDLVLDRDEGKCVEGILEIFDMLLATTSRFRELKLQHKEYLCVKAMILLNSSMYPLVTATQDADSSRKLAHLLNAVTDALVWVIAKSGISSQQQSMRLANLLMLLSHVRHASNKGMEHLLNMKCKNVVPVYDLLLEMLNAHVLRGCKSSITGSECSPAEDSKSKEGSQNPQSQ
assay_info: OT_ER_ERaERb_1440: Odyssey Thera (OT) 24-hour HEK293T Protein-Complementation Assay for Estrogen Receptor-alpha/-beta Homodimer (AID 2283356);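 note: heteromer of ER alpha and ER beta binding domains; hits raise reporter fluorescence and both agonists and antagonists give an increase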
Procedure: OT_ER_ERaERb_1440 is a cell-based assay that uses HEK293T, a human kidney cell line, with measurements taken at 24 hours after chemical dosing in a 384-well plate.OT_ER_ERaERb_1440 is one of one assay component(s) measured or calculated from the OT_ER_ERaERb_1440 assay. […] This assay endpoint, OT_ER_ERaERb_1440, was analyzed in the positive analysis fitting direction relative to DMSO as the negative control and baseline of activity. […]
Inconclusive results are not listed. The source made the active and inactive calls. The calls were made as follows: active = hit-call score of the fitted dose curve at least 0.9, where 1 is the maximum; inconclusive = response in the unintended direction; inactive = score below 0.9.
The categories you may choose from are active, inactive

Prompt: Each molecule tested received a call. Report the one for CC1COc2ccccc2N1C(=O)C(Cl)Cl (stereo not drawn) .
Response: inactive

Prompt: Please state the recorded outcome for this molecule: "CCCCCCCCC"
Response: inactive

Prompt: Per the assay record, what outcome was assigned to "OCCOCCOCCOCCO" ?
Response: inactive

Prompt: What did the test return for "CCN(CC)c1ccc2c(-c3ccccc3C(=O)O)c3ccc(=[N+](CC)CC)cc-3oc2c1" ?
Response: active

Prompt: What did this assay record as the result for "NCCCN1CCOCC1" ?
Response: inactive

Prompt: What was the test verdict on BrC1CCC(Br)C(Br)CCC(Br)C(Br)CCC1Br (stereo not drawn) ?
Response: active

Prompt: Returns: the outcome recorded for "c1ccc(CCCc2ccccn2)cc1" in this assay.
Response: inactive

Prompt: Could you kindly confirm the outcome this assay logged for "CCCCOCCOCCOCCOCCO" ?
Response: inactive

Prompt: For "CCC/C=C/C=O" , which call appears in the assay record?
Response: inactive

Prompt: Called result for "NC(=O)Nc1ccc(Cl)cc1"
Response: inactive

Prompt: Tell me the assay call for "CCCCCCCCCCCCCC(=O)O" please.
Response: inactive

Prompt: Kindly provide the recorded test outcome for the following molecule: "O=Nc1ccc(Nc2ccccc2)cc1"
Response: inactive

Prompt: Can you look up the reported call for "Cc1ccc(S)cc1" for me?
Response: inactive
